Target: KRAS (G12C)::SOS1 protein-protein interaction (Homo sapiens (Human), UniProt P01116, C118S/C51S/C80L/G12C)
Sequence (P01116 other isoform, or with tags, fused parts or gaps G12C/C51S/C80L/C118S): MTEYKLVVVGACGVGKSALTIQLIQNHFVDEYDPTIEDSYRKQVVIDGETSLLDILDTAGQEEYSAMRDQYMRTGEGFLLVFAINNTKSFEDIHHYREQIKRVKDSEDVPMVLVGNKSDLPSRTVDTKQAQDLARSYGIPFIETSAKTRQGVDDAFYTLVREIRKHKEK
Experiment: KRAS::SOS1 AlphaScreen binding assay (KRAS G12C)
Conditions: GDP
pIC50: −log10 of the molar value.
Observed property: pIC50

Compound	pIC50
COCCn1c(=O)n([C@@H]2CCOC2)c2nc(-c3onc4c3CCC[C@@]43CCCc4sc(N)c(C#N)c43)nc(O[C@@H](C)[C@@H]3CCCN3C)c21 [I-1]	8.70
C[C@H](Oc1nc(-c2onc3c2CCC[C@@]32CCCc3sc(N)c(C#N)c32)nc2c1n(C)c(=O)n2[C@@]12COC[C@@H]1C2)[C@@H]1CCCN1C [I-29]	9.00

[a] C[C@H](Oc1nc(-c2onc3c2CCC[C@@]32CCCc3sc(N)c(C#N)c32)nc2c1cnn2[C@@H]1CCOC1)[C@@H]1CCCN1C [I-43]
[b] C[C@H](Oc1nc(-c2onc3c2CCC[C@@]32CCCc3sc(N)c(C#N)c32)nc2c1n(C)c(=O)n2[C@@H]1CCOC1)[C@@H]1C[C@@H](F)CN1C [I-22]
Please tell me which of the two, a or b , has the higher reported pIC50 value. Response format: the label of the selected entry. b

[P] C[C@H](Oc1nc(-c2onc3c2CCC[C@@]32CCCc3sc(N)c(C#N)c32)nc2c1n(C)c(=O)n2C1COC1)[C@@H]1CCCN1C [I-24]
[Q] C[C@H](Oc1nc(-c2noc3c2CCC[C@@]32CCCc3sc(N)c(C#N)c32)nc2c1CCO[C@]21CCOC1)[C@@H]1CCCN1C [II-9b]
Hi! Which is lower in terms of pIC50, the first one P or the second one Q ? Pick one; state its label. P

[P] C[C@H](Oc1nc(-c2onc3c2CCC[C@@]32CCCc3sc(N)c(C#N)c32)nc2c1n(C)c(=O)n2C12COC(C1)C2)[C@@H]1CCCN1C [I-15]
[Q] CO[C@@H]1C[C@@H]([C@H](C)Oc2nc(-c3onc4c3CCC[C@@]43CCCc4sc(N)c(C#N)c43)nc3c2n(C)c(=O)n3[C@@H]2CCOC2)N(C)C1 [I-3]
Smaller pIC50 value? Options are P and Q Answer with the label corresponding to your selection. P

Source listed as patent US20250019385A1.
